Biological target: Zcchc11 enzyme (Homo sapiens)
Construct: made in house; host or cells: HEK293 cells (Zcchc11); E. coli Rosetta II (LIN28A)
Test: TUTase assay (Zcchc11 assay, Lin28a-dependent polyuridylation of pre-let-7)
Type: biochemical
Conditions: Lin28a-dependent Zcchc11 (Z11) TUTase assay; read-out: Potency Lin28a-dep Z11 IC50
measuredAttribute: IC50

Query string: Item under review: CN(C)C1CN(c2ccc(-n3cc(C(=O)O)c(=O)c4cc(Cl)c(N5CCC[C@@H]5CCOc5ccccn5)cc43)cn2)C1 . Reported IC50?
Result string: ≤ 1000 nM

Query string: Item under review: O=C(O)c1cn(-c2cnccn2)c2cc(N3C[C@@H](F)C[C@H]3COc3ncccc3Cl)c(Cl)cc2c1=O [Example 468] . Reported IC50?
Result string: 10000 to 50000 nM

Query string: Item under review: O=C(O)c1cn(-c2ccc(F)c(O)c2)c2cc(N3CCC[C@@H]3COc3ccccn3)c(F)cc2c1=O . Reported IC50?
Result string: ≤ 1000 nM

Query string: Item under review: O=C(O)c1cn(-c2ccnc(N3CCC3)c2)c2nc(N3CCC[C@@H]3COc3ncccc3Cl)c(Cl)cc2c1=O . Reported IC50?
Result string: ≤ 1000 nM

---

Item-by-item account of IC50
Biological target: Zcchc11 enzyme (Homo sapiens)
Construct: made in house; host or cells: HEK293 cells (Zcchc11); E. coli Rosetta II (LIN28A)
Sequence (Q5TAX3 212-1420): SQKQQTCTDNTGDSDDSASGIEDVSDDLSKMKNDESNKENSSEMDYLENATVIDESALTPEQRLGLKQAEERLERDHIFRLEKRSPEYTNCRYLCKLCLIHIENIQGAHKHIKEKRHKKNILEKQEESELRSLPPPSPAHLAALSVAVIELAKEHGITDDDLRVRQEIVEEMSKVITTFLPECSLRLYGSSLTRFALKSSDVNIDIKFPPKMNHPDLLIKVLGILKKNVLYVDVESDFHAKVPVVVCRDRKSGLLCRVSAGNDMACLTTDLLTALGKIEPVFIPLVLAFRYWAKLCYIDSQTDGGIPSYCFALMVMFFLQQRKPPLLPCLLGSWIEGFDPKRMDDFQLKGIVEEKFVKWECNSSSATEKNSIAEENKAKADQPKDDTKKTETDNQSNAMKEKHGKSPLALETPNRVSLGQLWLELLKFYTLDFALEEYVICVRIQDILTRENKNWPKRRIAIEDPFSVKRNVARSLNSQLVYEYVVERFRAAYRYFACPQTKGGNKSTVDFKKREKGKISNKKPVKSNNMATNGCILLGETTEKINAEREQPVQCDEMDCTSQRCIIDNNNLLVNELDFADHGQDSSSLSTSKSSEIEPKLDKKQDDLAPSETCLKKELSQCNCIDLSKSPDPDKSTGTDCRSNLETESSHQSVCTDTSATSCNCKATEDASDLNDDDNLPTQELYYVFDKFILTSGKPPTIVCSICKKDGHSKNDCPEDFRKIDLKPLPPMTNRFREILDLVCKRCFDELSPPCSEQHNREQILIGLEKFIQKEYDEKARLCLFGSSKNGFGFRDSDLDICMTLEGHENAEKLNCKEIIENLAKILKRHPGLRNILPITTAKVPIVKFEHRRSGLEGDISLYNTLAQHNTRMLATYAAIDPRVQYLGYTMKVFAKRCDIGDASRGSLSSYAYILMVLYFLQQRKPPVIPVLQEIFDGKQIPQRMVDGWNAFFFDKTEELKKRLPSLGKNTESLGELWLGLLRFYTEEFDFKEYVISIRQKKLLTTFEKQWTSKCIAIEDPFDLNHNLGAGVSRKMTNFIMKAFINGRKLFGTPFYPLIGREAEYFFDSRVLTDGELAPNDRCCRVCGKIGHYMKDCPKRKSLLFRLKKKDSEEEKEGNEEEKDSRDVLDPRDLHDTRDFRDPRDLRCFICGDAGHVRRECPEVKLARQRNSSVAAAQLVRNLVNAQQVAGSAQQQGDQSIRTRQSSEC
Assay: TUTase assay (Zcchc11 assay, Lin28a-dependent polyuridylation of pre-let-7)
Type: biochemical
Conditions: Lin28a-dependent Zcchc11 (Z11) TUTase activity; read-out: Potency Lin28a-dep Z11 IC50

Field: example entries. Status: answers known.
molecule | IC50
CN(C)C(=O)OC[C@H]1CCCN1c1cc2c(cc1Cl)c(=O)c(C(=O)O)cn2-c1ccc(N2CC(N(C)C)C2)nc1 (racemic) | ≤ 1 µM
CN(C(=O)[C@H]1CCCN1c1cc2c(cc1Cl)c(=O)c(C(=O)O)cn2-c1cnccn1)c1ccccn1 (racemic) | > 50 µM

Query string: Item under review: CN(C)C1CN(c2ccc(-n3cc(C(=O)O)c(=O)c4cc(Cl)c(N5CCC(C)(C)[C@@H]5COc5ncccc5Cl)cc43)cn2)C1 . Reported IC50?
Result string: ≤ 1 µM

---

Target: Zcchc11 enzyme (Homo sapiens, UniProt Q5TAX3)
Construct: made in house; host or cells: HEK293 cells (Zcchc11); E. coli Rosetta II (LIN28A)
Experiment: TUTase assay (Zcchc11 assay, Lin28a-dependent polyuridylation of pre-let-7)
Assay type: biochemical
Conditions: Lin28a-dependent Zcchc11 (Z11) TUTase assay; read-out: Potency Lin28a-dep Z11 IC50
pIC50: −log10 of the molar value.
Item-by-item account of pIC50

Field: example entries. Status: answers known.
molecule | experimentalSystem | pIC50
O=C(O)c1cn(C2COC2)c2cc(N3CCC[C@@H]3COc3ccccn3)c(F)cc2c1=O [Example 451] | Zcchc11 enzyme (Homo sapiens, UniProt Q5TAX3) | 5.00 to 6.00
O=C(O)c1cn(-c2cc(F)ccc2F)c2cc(N3CCC[C@@H]3COc3ccccn3)c(F)cc2c1=O [Example 387] | Zcchc11 enzyme (Homo sapiens, UniProt Q5TAX3) | 5.00 to 6.00

In the following, a different molecule is considered.
Query string: Item under review: CC1CC1n1cc(C(=O)O)c(=O)c2cc(F)c(N3CCC[C@@H]3COc3ccccn3)cc21 (stereo partly shown) [Example 446] . Reported pIC50?
Result string: 5.00 to 6.00

---

Biological target: Zcchc11 enzyme (Homo sapiens)
Construct: made in house; host or cells: HEK293 cells (Zcchc11); E. coli Rosetta II (LIN28A)
Assay: TUTase assay (Zcchc11 assay, Lin28a-dependent polyuridylation of pre-let-7)
Type: biochemical
Conditions: Lin28a-dependent Zcchc11 (Z11) TUTase assay; read-out: Potency Lin28a-dep Z11 IC50
pIC50: −log10 of the molar value.
Item-by-item account of pIC50

compound | measured
COc1ccc(C2C[C@H](COc3nc(OC)ccc3Cl)N(c3cc4c(cc3Cl)c(=O)c(C(=O)O)cn4-c3ccc(N4CC(N(C)C)C4)nc3)C2)cn1 (stereo partly drawn) | ≥ 6.00
O=C(O)c1cn(-c2cc(F)cc(F)c2)c2cc(N3CCC[C@@H]3COc3ccccn3)c(F)cc2c1=O | 5.00 to 6.00
CN(C)C1CN(c2ncc(-n3cc(C(=O)O)c(=O)c4cc(Cl)c(N5CCC[C@]5(C)COc5ncccc5Cl)nc43)cn2)C1 | 5.00 to 6.00
Cc1ccc(-n2cc(C(=O)O)c(=O)c3cc(F)c(N4CCC[C@@H]4COc4ccccn4)cc32)c(C)c1 | 5.00 to 6.00
O=C(O)c1cn(-c2ccc(C3(O)COC3)nc2)c2cc(N3CCC[C@@H]3COc3ncccc3Cl)c(Cl)cc2c1=O | ≥ 6.00

Query string: Item under review: CN(C)C1CN(c2cc(-n3cc(C(=O)O)c(=O)c4cc(Cl)c(N5CCC[C@@H]5COc5ncccc5Cl)cc43)ccn2)C1 . Reported pIC50?
Result string: ≥ 6.00

---

Molecular target: Zcchc11 enzyme (Homo sapiens)
Construct: made in house; host or cells: HEK293 cells (Zcchc11); E. coli Rosetta II (LIN28A)
Test: TUTase assay (Zcchc11 assay, Lin28a-dependent polyuridylation of pre-let-7)
Assay type: biochemical
Conditions: Lin28a-dependent Zcchc11 (Z11) TUTase activity; read-out: Potency Lin28a-dep Z11 IC50
Item-by-item account of IC50

Query string: Item under review: COc1ccc(Cl)c(OC[C@H]2CC(c3ccc(O)nc3)CN2c2cc3c(cc2Cl)c(=O)c(C(=O)O)cn3-c2ccc(N3CC(N(C)C)C3)nc2)n1 (mixture of isomers) [Compound 225] . Reported IC50?
Result string: ≤ 1 µM

Query string: Item under review: O=C(O)c1cn(-c2ccc(F)cc2F)c2cc(N3CCC[C@@H]3COc3ccccn3)c(F)cc2c1=O [Compound 84] . Reported IC50?
Result string: ≤ 1 µM

Query string: Item under review: O=C(O)c1cn(-c2ccc(Cl)c(O)c2)c2cc(N3CCC[C@@H]3COc3ncccc3Cl)ccc2c1=O [Compound 171] . Reported IC50?
Result string: > 50 µM

---

Target: Zcchc11 enzyme (Homo sapiens, UniProt Q5TAX3)
Construct: made in house; host or cells: HEK293 cells (Zcchc11); E. coli Rosetta II (LIN28A)
Assay: TUTase assay (Zcchc11 assay, Lin28a-dependent polyuridylation of pre-let-7)
Format: biochemical
Details: LIN28A 10 nM, Zcchc11 0.2 nM, 5′-fluorescein pre-let-7 miRNA 2 nM, UTP 5 uM, room temperature, 30 minutes pre-incubation; read-out: Potency Lin28a-dep Z11 IC50
measuredAttribute: IC50

Field: example entries. Status: answers known.
compound | experimentalSystem | IC50
CN(C)C1CN(c2ccc(-n3cc(C(=O)O)c(=O)c4cc(Cl)c(N5CCC(C)(C)C5COc5ncccc5Cl)cc43)cn2)C1 (stereo not shown) | Zcchc11 enzyme (Homo sapiens, UniProt Q5TAX3) | ≤ 1000 nM
O=C(O)c1cn(-c2ccc(O)cc2)c2cc(N3CCC[C@@H]3COc3cc4[nH]ccc4cn3)c(F)cc2c1=O | Zcchc11 enzyme (Homo sapiens, UniProt Q5TAX3) | ≤ 1000 nM
CC1(n2cc(C(=O)O)c(=O)c3cc(Cl)c(N4CCC[C@@H]4COc4ncccc4Cl)c(F)c32)CC1 | Zcchc11 enzyme (Homo sapiens, UniProt Q5TAX3) | 1000 to 10000 nM
O=C(O)c1cn(C2CN(CCO)C2)c2cc(N3CCC[C@@H]3COc3ncccc3Cl)c(Cl)cc2c1=O | Zcchc11 enzyme (Homo sapiens, UniProt Q5TAX3) | 1000 to 10000 nM
O=C(O)c1cn(-c2cncc(O)n2)c2cc(N3CCC[C@@H]3COc3ccccn3)c(F)cc2c1=O | Zcchc11 enzyme (Homo sapiens, UniProt Q5TAX3) | 1000 to 10000 nM

Query string: API: value(readout=IC50, system=Zcchc11 enzyme (Homo sapiens, UniProt Q5TAX3)) for record CC1(n2cc(C(=O)O)c(=O)c3cc(Cl)c(N4C(=O)CC[C@@H]4COc4ccccn4)cc32)CC1
Result string: > 50000 nM

Query string: API: value(readout=IC50, system=Zcchc11 enzyme (Homo sapiens, UniProt Q5TAX3)) for record COc1ccc(Cl)c(OCC2C3CC(C3)N2c2cc3c(cc2Cl)c(=O)c(C(=O)O)cn3-c2ccc(N3CC(N(C)C)C3)nc2)n1 (stereo not shown)
Result string: ≤ 1000 nM
